In this section we review reported pKd values for a set of binders.
Biological target: T1, 4Ig human B7-H3 (human, UniProt Q5ZPR3 29-466, limits assumed)
T1 construct: Soluble analyte in SPR; also called 4Ig-B7H3; 4Ig B7H3
T1 sequence: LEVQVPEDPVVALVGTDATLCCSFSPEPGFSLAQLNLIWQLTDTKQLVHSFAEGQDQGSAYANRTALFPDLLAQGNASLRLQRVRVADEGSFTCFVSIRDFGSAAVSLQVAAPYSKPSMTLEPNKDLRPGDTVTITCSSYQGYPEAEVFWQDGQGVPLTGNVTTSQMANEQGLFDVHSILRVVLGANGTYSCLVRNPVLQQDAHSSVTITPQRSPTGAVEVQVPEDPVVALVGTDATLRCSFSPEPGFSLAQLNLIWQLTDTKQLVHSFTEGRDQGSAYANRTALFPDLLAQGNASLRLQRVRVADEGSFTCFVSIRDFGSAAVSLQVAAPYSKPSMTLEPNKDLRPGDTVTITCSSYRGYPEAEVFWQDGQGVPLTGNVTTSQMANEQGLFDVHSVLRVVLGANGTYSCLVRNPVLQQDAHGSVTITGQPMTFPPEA
Assay: SPR, Carterra LSA; antibody captured on anti-human Fc lawn, 4Ig human B7-H3 as analyte
Lab note — pKd values are minus log10 of concentrations in M.

For orientation, consider the following solved cases.
| binder | pKd |
| --- | --- |
| L3H3 (antibody, human IgG1, kappa, V domains shown, Humanized IgG1, HEK293; chains tied by the L/H names; also called YB8 L3 + YB8 H3) VH: QVQLVQSGAEVKKPGASVKVSCKASGYTFTNYDINWVRQATGQGLEWMGWIFPGDGSTQYNEKFKGRVTLTRNTSISTAYMELSSLRSEDTAVYFCARQTTATWFAYWGQGTLVTVSS VL: EIVMTQSPDFQSVTPKEKVTLTCRASQSISDYLHWYQQKPDQSPKLLIKYASQSISGVPSRFSGSGSGSDFTLTINSLEAEDAGVYYCQNGHSFPLTFGQGTKLEIKR | 8.01 |
| chimeric anti-B7H3 IgG (Chimeric Heavy Chain (Parental) + Chimeric Light chain (parental)) (antibody, V domains shown, Chimeric IgG1 with murine 8H9 variable domains, expressed in HEK293; also called Chimeric IgG; parental chimeric antibody) VH: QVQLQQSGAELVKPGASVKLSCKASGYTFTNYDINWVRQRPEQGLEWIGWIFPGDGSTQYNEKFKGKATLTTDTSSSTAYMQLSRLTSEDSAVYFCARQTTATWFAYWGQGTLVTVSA VL: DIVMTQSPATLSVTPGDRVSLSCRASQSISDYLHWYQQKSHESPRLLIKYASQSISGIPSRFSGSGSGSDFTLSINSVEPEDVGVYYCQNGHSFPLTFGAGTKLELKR | 8.00 |

Quote pKd reported for L3H1 (antibody, human IgG1, kappa, V domains shown, Humanized IgG1, HEK293; chains tied by the L/H names; also called YB8 L3 + YB8 H1) VH: QVQLVQSGAEVKKPGASVKVSCKASGYTFTNYDINWVRQATGQGLEWIGWIFPGDGSTQYNEKFQGRVTLTTNTSISTAYMELSSLRSEDTAVYYCARQTTATWFAYWGQGTLVTVSS VL: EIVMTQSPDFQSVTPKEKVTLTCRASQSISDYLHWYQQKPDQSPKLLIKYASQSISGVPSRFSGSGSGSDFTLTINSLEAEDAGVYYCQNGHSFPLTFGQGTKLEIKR please.
8.00
